Source listed as ChEMBL document CHEMBL5291721.

Molecular target: Equilibrative nucleoside transporter 1 (Homo sapiens, UniProt Q99808); also: assay procedure not described here
Sequence (Q99808 whole entry): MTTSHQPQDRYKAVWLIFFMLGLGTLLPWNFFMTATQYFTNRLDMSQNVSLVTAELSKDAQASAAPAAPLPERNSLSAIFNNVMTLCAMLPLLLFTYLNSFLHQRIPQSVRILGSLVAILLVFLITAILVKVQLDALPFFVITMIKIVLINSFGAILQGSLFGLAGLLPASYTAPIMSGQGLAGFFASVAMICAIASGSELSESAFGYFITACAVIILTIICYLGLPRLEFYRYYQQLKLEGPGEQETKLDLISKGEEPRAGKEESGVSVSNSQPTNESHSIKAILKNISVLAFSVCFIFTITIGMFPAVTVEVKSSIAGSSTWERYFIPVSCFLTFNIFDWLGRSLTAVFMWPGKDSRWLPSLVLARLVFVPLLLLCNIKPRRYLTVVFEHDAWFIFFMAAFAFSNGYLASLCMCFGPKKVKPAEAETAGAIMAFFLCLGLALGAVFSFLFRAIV
property: AC50

Write down the reported AC50 (system: Equilibrative nucleoside transporter 1 (Homo sapiens, UniProt Q99808)) of C=CCN1CCCC1CNC(=O)c1cc(S(N)(=O)=O)cc(OC)c1OC (stereo not given) [VERALIPRIDE]; also: assay procedure not described here
> 30 µM

Report the value of AC50 obtained on Equilibrative nucleoside transporter 1 (Homo sapiens, UniProt Q99808) for Cc1ccc(S(=O)(=O)NC(=O)NN2CC3CCCC3C2)cc1 (stereo not given) [GLICLAZIDE] .
> 10 µM

State, for Equilibrative nucleoside transporter 1 (Homo sapiens, UniProt Q99808), measured AC50 of the compound listed here: `CN1C(C(=O)Nc2ccccn2)=C(O)c2sc(Cl)cc2S1(=O)=O`
> 30 µM

Provide measured AC50 on Equilibrative nucleoside transporter 1 (Homo sapiens, UniProt Q99808) for C=CCc1ccccc1OCC(O)CNC(C)C (stereo not given) please.
> 30 µM

Provide measured AC50 on Equilibrative nucleoside transporter 1 (Homo sapiens, UniProt Q99808) for CCCN1C[C@H](CSC)C[C@@H]2c3cccc4[nH]cc(c34)C[C@H]21 [PERGOLIDE] please.
> 30 µM

Would you please give the reported AC50 of `CCc1c(Cl)c(O)c(Cl)c(O)c1C(=O)O[C@H]1[C@H](O)[C@H](OC)[C@H](OC/C2=C\C=C\C[C@H](O)/C(C)=C/[C@H](CC)[C@@H](O[C@@H]3OC(C)(C)[C@@H](OC(=O)C(C)C)[C@H](O)[C@@H]3O)/C(C)=C/C(C)=C/C[C@@H]([C@@H](C)O)OC2=O)O[C@@H]1C` with Equilibrative nucleoside transporter 1 (Homo sapiens, UniProt Q99808)?
3.6 µM
